Provide the recorded 5+ nucleoli phenotype percent effect for the entries that follow.
Test system: MCF10A
Experiment: 5+ nucleoli phenotype percent effect (relative to siNT 0% and siKIF11 100%); higher = more cells with five or more nucleoli
Details: 20 nM; 72 h
The answer is to be given in %; state only the numeric part.

Query :: Using the record for UGCCUGGGUCUCUGGCCUGCGCGU [hsa-miR-661] , report its 5+ nucleoli phenotype percent effect.
Result :: -18.5

Query :: Lookup UGAGAACUGAAUUCCAUGGGUU [hsa-miR-146a-5p]
Result :: -31.6

Query :: Lookup AAUUCCCUUGUAGAUAACCCGG [hsa-miR-3938]
Result :: 51.2

Query :: Lookup UGAAGCUCUGACAUUCCUGCAG [hsa-miR-6806-3p]
Result :: -18.7

Query :: Lookup CUCUAGAGGGAAGCGCUUUCUG [hsa-miR-519b-5p]
Result :: -5.59

Query :: Lookup UGAGUGAUUGAUAGCUAUGUUC [hsa-miR-4765]
Result :: 24.9

----------
Test system: MCF10A
Assay: 5+ nucleoli phenotype percent effect (relative to siNT 0% and siKIF11 100%); higher = more cells with five or more nucleoli
Conditions: 20 nM; 72 h
Provide the recorded 5+ nucleoli phenotype percent effect for the entries that follow.
The answer is to be given in %; state only the numeric part.

Query :: Using the record for AUUGUUCUGUCUUUCUCCCAG [hsa-miR-6739-3p] , report its 5+ nucleoli phenotype percent effect.
Result :: -25.7

Query :: Lookup GUAGGGGAGGUUGGGCCAGGGA [hsa-miR-6824-5p]
Result :: 39.2

Query :: Lookup CGCGCCGGGCCCGGGUU [hsa-miR-3195]
Result :: -31.1

Query :: Lookup GUCCACUUCUGCCUGCCCUGCC [hsa-miR-4436b-5p]
Result :: -0.992

Query :: Lookup UCUCUUCAUCUACCCCCCAG [hsa-miR-6515-3p]
Result :: -2.57

Query :: Lookup UGCCUACUGAGCUGAAACACAG [hsa-miR-24-2-5p]
Result :: -9.36

Query :: Lookup AAGCAAUACUGUUACCUGAAAU [hsa-miR-3942-5p]
Result :: 13.9

Query :: Lookup GCCUGCUGGGGUGGAACCUGGU [hsa-miR-370]
Result :: -25.5

Query :: Lookup CUUGGAUUUUCCUGGGCCUCAG [hsa-miR-5004-3p]
Result :: -12

Query :: Lookup ACCAAGUCUGCGUCAUCCUCUC [hsa-miR-3691-3p]
Result :: 0.0313

Query :: Lookup GGCGGAGGGAAGUAGGUCCGUUGGU [hsa-miR-658]
Result :: 5.47

Query :: Lookup GAAGGACACUGGUGUCAACGGCU [hsa-miR-8080]
Result :: 19.9

----------
Tested on: MCF10A
Assay: one-nucleolus phenotype percent effect (relative to siNT 0% and siNOL11 100%); higher = more cells with one nucleolus (ribosome biogenesis inhibition)
Conditions: 20 nM; 72 h
PARAMETER_MEASURED: one-nucleolus phenotype percent effect (%)
The answer is to be given in %; state only the numeric part.

Query :: Using the record for AGGAAGCAAGAGAACCCUGUGG [hsa-miR-6828-5p] , report its one-nucleolus phenotype percent effect.
Result :: 18.9

Query :: Lookup UUUCAGAUAACAGUAUUACAU [hsa-miR-3942-3p]
Result :: -15.3

Query :: Lookup CGAGGGCAUUUCAUGAUGCAGGC [hsa-miR-3616-3p]
Result :: 43.6

Query :: Lookup UAGGAUUACAAGUGUCGGCCAC [hsa-miR-3159]
Result :: -5

Query :: Lookup GUUUUACCACCUCCAGGAGACU [hsa-miR-2681-5p]
Result :: -33.4

Query :: Lookup GGCGGCGGGGAGGUAGGCAG [hsa-miR-8072]
Result :: -6.87

Query :: Lookup UGGUUGACCAUAGAACAUGCGC [hsa-miR-380-5p]
Result :: 13.4

Query :: Lookup AAUCCCAAUGCUAGACCCGGUG [hsa-miR-4733-5p]
Result :: 2.5

Query :: Lookup UUGGGUUUUCUCUUCAAUCCAG [hsa-miR-6839-3p]
Result :: 14.2

Query :: Lookup AACGGGAAUGCAGGCUGUAUCU [hsa-miR-4681]
Result :: -21

Query :: Lookup UGCUUCCUUUCUCAGCUG [hsa-miR-7162-5p]
Result :: 0.399

Query :: Lookup UCUGCAGGGUUUGCUUUGAG [hsa-miR-1205]
Result :: 96.8

----------
Test system: MCF10A
Test: percent viability (nuclei count relative to siNT); higher = more viable cells
Details: 20 nM; 72 h
Class (required): determined from percent viability; valid ranges are lowest: < 50%; middle: ≥ 50% and < 90%; highest: ≥ 90%

Query :: In plain terms, what class is GCGGUGGGGCCGGAGGGGCGU [hsa-miR-6786-5p] ?
Result :: highest

Query :: Lookup GUGUCUUUUGCUCUGCAGUCA [hsa-miR-511]
Result :: middle

Query :: Lookup UCAAAAUCAGGAGUCGGGGCUU [hsa-miR-8063]
Result :: middle

Query :: Lookup CGUGCCACCCUUUUCCCCAG [hsa-miR-1227-3p]
Result :: highest

Query :: Lookup UGGAGAGAAAGGCAGUA [hsa-miR-4306]
Result :: lowest

Query :: Lookup UCGCGCCCCGGCUCCCGUUC [hsa-miR-1292-3p]
Result :: middle

Query :: Lookup CGGGCAUGCUGGGAGAGACUUU [hsa-miR-6862-5p]
Result :: lowest

Query :: Lookup GGGGCGCGGCCGGAUCG [hsa-miR-3178]
Result :: highest

Query :: Lookup ACCAUCGACCGUUGAUUGUACC [hsa-miR-181a-3p]
Result :: middle

Query :: Lookup UGCUGGCUCAUUUCAUAUGUGU [hsa-miR-5580-5p]
Result :: lowest

Query :: Lookup ACUUGGGCACUGAAACAAUGUCC [hsa-miR-635]
Result :: middle

----------
Test system: MCF10A
Assay: percent viability (nuclei count relative to siNT); higher = more viable cells
Settings: 20 nM; 72 h
Simple rule here: percent viability less than 50% is Criterion met, otherwise Criterion not met.

Query :: Please determine if ACUGGGGGCUUUCGGGCUCUGCGU [hsa-miR-637] is below 50% in terms of percent viability.
Result :: Criterion met

Query :: Lookup AGCCGCUCUUCUCCCUGCCCACA [hsa-miR-6743-3p]
Result :: Criterion not met

Query :: Lookup CAGCCUCUGCCCUUGGCCUCC [hsa-miR-6877-3p]
Result :: Criterion met

Query :: Lookup UCUGAGAGAGCUCGAUGGCAG [hsa-miR-6761-5p]
Result :: Criterion not met

Query :: Lookup UUGGGGUUUGGGGUGCAGACAUUGC [hsa-miR-6855-5p]
Result :: Criterion met

----------
Tested on: MCF10A
Assay: percent viability (nuclei count relative to siNT); higher = more viable cells
Details: 20 nM; 72 h
Simple rule here: percent viability less than 50% is condition met, otherwise condition not met.

Query :: Please determine if UCUGGGCAACAAAGUGAGACCU [hsa-miR-1285-3p] is below 50% in terms of percent viability.
Result :: condition met

Query :: Lookup UCGUGUCCCUCUUGUCCACAG [hsa-miR-6774-3p]
Result :: condition not met

Query :: Lookup UGACUUCUACCUCUUCCAAAG [hsa-miR-6505-3p]
Result :: condition met

Query :: Lookup AAUCCUUGCUACCUGGGU [hsa-miR-500b]
Result :: condition met

Query :: Lookup UGAGUGCCGGUGCCUGCCCUG [hsa-miR-1909-5p]
Result :: condition met

Query :: Lookup AACUCACGAAGUAUACCGAAGU [hsa-miR-4798-3p]
Result :: condition met

Query :: Lookup GUGAGGACUCGGGAGGUGG [hsa-miR-1224-5p]
Result :: condition not met

Query :: Lookup AGGUUGUCCGUGGUGAGUUCGCA [hsa-miR-323b-5p]
Result :: condition met

Query :: Lookup GAACUCACCCUCUGCUCCCAG [hsa-miR-6750-3p]
Result :: condition not met

Query :: Lookup UGUGACAAUAGAGAUGAACAUG [hsa-miR-4504]
Result :: condition met

Query :: Lookup UGAGGAUGGAUAGCAAGGAAGCC [hsa-miR-3605-5p]
Result :: condition not met

Query :: Lookup CAGGGAGAAGGUGGAAGUGCAGA [hsa-miR-6760-5p]
Result :: condition met

----------
Provide the recorded nucleolar rRNA biogenesis percent inhibition for the entries that follow.
Test system: MCF10A
Experiment: nucleolar rRNA biogenesis percent inhibition (5-EU; siNT 0%, siPOLR1A 100%); higher = stronger inhibition of nucleolar rRNA biogenesis
Details: 20 nM; 72 h
The answer is to be given in %; state only the numeric part.

Query :: Using the record for UGGCAGUGUCUUAGCUGGUUGU [hsa-miR-34a-5p] , report its nucleolar rRNA biogenesis percent inhibition.
Result :: 72.2

Query :: Lookup AGGAGCUAUCCACUCCAGGUGUCC [hsa-miR-6500-5p]
Result :: 61.3

Query :: Lookup CAGGUCGUCUUGCAGGGCUUCU [hsa-miR-431-3p]
Result :: 83.8

Query :: Lookup CAGCCUCUGCCCUUGGCCUCC [hsa-miR-6877-3p]
Result :: 114

Query :: Lookup GGCGACAAAACGAGACCCUGUC [hsa-miR-1273c]
Result :: 31.6

Query :: Lookup GGCUCCUCCUCUCAGGAUGUG [hsa-miR-4268]
Result :: 133

Query :: Lookup AGAAAGGGUGGCAAUACCUCUU [hsa-miR-5681a]
Result :: 76.4

Query :: Lookup UGGUUCUAGACUUGCCAACUA [hsa-miR-182-3p]
Result :: 64.6

Query :: Lookup AGAUCAGAAGGUGAUUGUGGCU [hsa-miR-383-5p]
Result :: 0.973

Query :: Lookup GUUCUCCCAACGUAAGCCCAGC [hsa-miR-629-3p]
Result :: 82.1

Query :: Lookup CUUAUGCAAGAUUCCCUUCUAC [hsa-miR-491-3p]
Result :: 63.6

Query :: Lookup ACUCGGCGUGGCGUCGGUCGUG [hsa-miR-1307-3p]
Result :: 100

Query :: Lookup UUGCACUUGUCUCAGUGA [hsa-miR-4325]
Result :: 104

Query :: Lookup AAGGAGAUGCUCAGGCAGAU [hsa-miR-6888-5p]
Result :: 50.6

Query :: Lookup ACCUUGGCUCUAGACUGCUUACU [hsa-miR-212-5p]
Result :: 118

Query :: Lookup AAAAGGCGGGAGAAGCCCCA [hsa-miR-4484]
Result :: 69.6

Query :: Lookup UCAUAGCCCUGUACAAUGCUGCU [hsa-miR-103b]
Result :: 47.6

Query :: Lookup CUGGCGGCUGUGUCUUCACAG [hsa-miR-6770-3p]
Result :: -8.82

Query :: Lookup CAAUCAGCAAGUAUACUGCCCU [hsa-miR-34a-3p]
Result :: 70.2

Query :: Lookup CCGUCGCCGCCACCCGAGCCG [hsa-miR-1181]
Result :: 86.9

Query :: Lookup AAGGAGCUUACAAUCUAGCUGGG [hsa-miR-708-5p]
Result :: -26.3

Query :: Lookup UAAGGCACGCGGUGAAUGCC [hsa-miR-124-3p]
Result :: 61.9

Query :: Lookup UUCUCCCACUACCAGGCUCCCA [hsa-miR-4713-5p]
Result :: 82.4

Query :: Lookup AGAGCAGAAGGAUGAGAU [hsa-miR-4468]
Result :: 102

Query :: Lookup CGCGCCGGGCCCGGGUU [hsa-miR-3195]
Result :: 51.6

Query :: Lookup AAAGGAGGAAAUAGGCAGGCCA [hsa-miR-3173-3p]
Result :: 86.5

Query :: Lookup CACCAGGGCAGAGCAGGGCUGA [hsa-miR-6753-5p]
Result :: 91.2

Query :: Lookup UUUGCAGUAACAGGUGUGAGCA [hsa-miR-6516-5p]
Result :: 48.6

Query :: Lookup UCUCUGGGCCUGUGUCUUAGGC [hsa-miR-330-5p]
Result :: 65.2

Query :: Lookup UGUCCUCUAGGGCCUGCAGUCU [hsa-miR-3909]
Result :: 42.9

Query :: Lookup UGGUCUGCAAAGAGAUGACUGU [hsa-miR-4527]
Result :: 67.3

Query :: Lookup UCUCCCUUGAGGGCACUUU [hsa-miR-4287]
Result :: 82.1

Query :: Lookup AGGCGGAGACUUGGGCAAUUG [hsa-miR-25-5p]
Result :: 75.3

Query :: Lookup UUUGGGACUGAUCUUGAUGUCU [hsa-miR-3913-5p]
Result :: 84.5

Query :: Lookup UGGCAAGGAAAGAAGAGGAUCA [hsa-miR-6809-5p]
Result :: 69.8

Query :: Lookup AAGCAGCUGCCUCUGAGGC [hsa-miR-646]
Result :: 130

Query :: Lookup AAAGGCAUAAAACCAAGACA [hsa-miR-3910]
Result :: 12.7

Query :: Lookup ACUGGGCUUGGAGUCAGAAG [hsa-miR-378g]
Result :: 57.9

Query :: Lookup CUGCCAAUUCCAUAGGUCACAG [hsa-miR-192-3p]
Result :: 67.1

Query :: Lookup CUCUCCUCCCGGCUUC [hsa-miR-4279]
Result :: 26.8

Query :: Lookup CGGCGGGGACGGCGAUUGGUC [hsa-miR-1908-5p]
Result :: 90.6

Query :: Lookup UAGGAGCUCAACAGAUGCCUGUU [hsa-miR-3139]
Result :: 5.86

Query :: Lookup CUGGCGGAGCCCAUUCCAUGCCA [hsa-miR-4730]
Result :: 91.1

Query :: Lookup AAAAGGCAUUGUGGUUUUUG [hsa-miR-548an]
Result :: 65.7

Query :: Lookup AGCUUUUGGGAAUUCAGGUAGU [hsa-miR-3140-3p]
Result :: 6.44

Query :: Lookup AGUUUUGCAGGUUUGCAUCCAGC [hsa-miR-19b-1-5p]
Result :: 30.7

Query :: Lookup GGCCAGCCACCAGGAGGGCUG [hsa-miR-3194-5p]
Result :: 22.9

Query :: Lookup CUCGGCGCGGGGCGCGGGCUCC [hsa-miR-1469]
Result :: 96.7

Query :: Lookup ACUGGGGAGCAGAAGGAGAACC [hsa-miR-4667-5p]
Result :: 81.2

Query :: Lookup CUCUCCCUCUUUACCCACUAG [hsa-miR-6867-3p]
Result :: 71.1
